Consider compounds characterized by their Ki with Cannabinoid receptor 2 (Homo sapiens).
// units = nM; emit number, no label

COMPOUND	UNIT ABBREVIATION	TEST VALUE
CCCCn1cc(C(=O)Nc2cccc3ccccc23)c(=O)c2ccccc21	nM	455

Record request: Ki value, item `CCCCCn1cc(C(=O)N[C@@H](C)c2ccccc2)c(=O)c2ccccc21`
784

Would you mind doing `CCCCCn1cc(C(=O)Nc2ccc(C#N)cc2)c(=O)c2ccccc21` as well?
772

And `CCCCCn1cc(C(=O)NC23CC4CC(C)(CC(C)(C4)C2)C3)c(=O)c2ccccc21` ?
15.8

For `CCCC(C)(C)c1ccc2c(c1)OC(C)(C)[C@@H]1CC=C(C)C[C@@H]21` then?
20.3

Item: CCCCCn1cc(C(=O)NC(C)c2ccccc2)c(=O)c2ccccc21 (racemic)
70.8

Next record, please: `CCCCCCn1cc(C(=O)Nc2cccc3ccccc23)c(=O)c2ccccc21`
844

Now the compound `CCCCCn1cc(C(=O)NC23CC4CC(CC(C4)C2)C3)c(=O)c2ccccc21`
16.4

Try this compound too: `CC12CC3CC(C)(C1)CC(NC(=O)c1cn(Cc4ccccc4)c4ccccc4c1=O)(C3)C2`
664

Lookup `CCCCCn1cc(C(=O)N[C@H](C)c2cccc3ccccc23)c(=O)c2ccccc21`
125

Entry to check: CCCCCn1cc(C(=O)NC2C3CC4CC(C3)CC2C4)c(=O)c2ccccc21 (centres undefined)
13.4

// query: CCCCCn1cc(C(=O)NC2CCCc3ccccc32)c(=O)c2ccccc21 (racemic)
60.2

Next up: `CCCCCn1cc(C(=O)N[C@H](C)c2ccc3ccccc3c2)c(=O)c2ccccc21`
584

----------
Molecular target: Cannabinoid receptor 1 (Homo sapiens, UniProt P21554)
Sequence (P21554 whole entry): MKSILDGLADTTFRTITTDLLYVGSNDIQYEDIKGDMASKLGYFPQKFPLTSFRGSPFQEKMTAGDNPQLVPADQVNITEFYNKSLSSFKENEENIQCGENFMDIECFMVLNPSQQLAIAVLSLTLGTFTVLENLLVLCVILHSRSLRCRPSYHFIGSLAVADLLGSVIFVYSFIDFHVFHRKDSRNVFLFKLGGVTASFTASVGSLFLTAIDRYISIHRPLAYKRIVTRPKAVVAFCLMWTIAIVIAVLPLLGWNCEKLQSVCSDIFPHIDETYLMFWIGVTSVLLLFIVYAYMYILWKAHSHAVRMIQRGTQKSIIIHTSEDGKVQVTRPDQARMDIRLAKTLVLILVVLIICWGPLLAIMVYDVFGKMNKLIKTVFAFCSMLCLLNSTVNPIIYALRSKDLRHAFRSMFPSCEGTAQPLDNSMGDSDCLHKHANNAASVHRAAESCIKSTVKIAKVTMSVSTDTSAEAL
Experiment: Displacement of [3H]SR-141716A from human CB1 receptor at 10 uM
READOUT KIND: Activity

MOLECULE	Activity
CCCCCCn1cc(C(=O)Nc2ccc(OC)cc2)c(=O)c2ccccc21	< 10%
CCCCCn1cc(C(=O)NC(C)c2cccc3ccccc23)c(=O)c2ccccc21 (racemic)	35.5%
CCCCCn1cc(C(=O)Nc2ccc(C#N)cc2)c(=O)c2ccccc21	49.6%
CCCCCn1cc(C(=O)NC(C)c2ccccc2)c(=O)c2ccccc21 (racemic)	68.3%
CC12CC3CC(C)(C1)CC(NC(=O)c1cn(Cc4ccccc4)c4ccccc4c1=O)(C3)C2	32.5%

Value lookup for Activity; key = `CCCCCn1cc(C(=O)NCCCc2ccccc2)c(=O)c2ccccc21`
32.8%

Same again, this time with `CCCCCn1cc(C(=O)NCCc2ccc3c(c2)OCO3)c(=O)c2ccccc21`
43.6%

----------
Target: Cannabinoid receptor 2 (Homo sapiens, UniProt P34972)
Sequence (P34972 whole entry): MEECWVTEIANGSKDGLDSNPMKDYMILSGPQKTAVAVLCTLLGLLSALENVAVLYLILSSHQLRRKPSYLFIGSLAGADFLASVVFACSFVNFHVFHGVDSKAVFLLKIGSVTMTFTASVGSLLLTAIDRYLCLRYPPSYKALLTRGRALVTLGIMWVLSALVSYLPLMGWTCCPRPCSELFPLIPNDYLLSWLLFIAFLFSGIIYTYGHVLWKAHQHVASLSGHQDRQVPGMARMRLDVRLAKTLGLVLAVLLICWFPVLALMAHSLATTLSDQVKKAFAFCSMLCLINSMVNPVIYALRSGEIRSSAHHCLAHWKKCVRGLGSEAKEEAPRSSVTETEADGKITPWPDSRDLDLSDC
Assay: Displacement of [3H]CP-55940 from human CB2 receptor at 10 uM
Item-by-item account of Activity
Numeric answer only, unit % assumed.

Recorded Activity, per entry:
MOLECULE	Activity (%)
CCCCCn1cc(C(=O)Nc2ccc(C#N)cc2)c(=O)c2ccccc21	79.4
CCCCCn1cc(C(=O)NC2C3CC4CC(C3)CC2C4)c(=O)c2ccccc21 (stereo not given)	104

# returns recorded Activity (system: Cannabinoid receptor 2 (Homo sapiens, UniProt P34972)) for `CCCCCn1cc(C(=O)NCc2ccc(OC)cc2)c(=O)c2ccccc21`
51.7

Repeat for the following molecule: `CCCCCn1cc(C(=O)Nc2ccc(Cl)c(Cl)c2)c(=O)c2ccccc21`
68.1

Okay, and `CCCCCCn1cc(C(=O)Nc2ccc(OC)cc2)c(=O)c2ccccc21` ?
28.2

Attribution: ChEMBL document CHEMBL1148594
